# ASSAY SUMMARY: in vitro
# RUN PARAMETERS: mouse, liver microsomes
Grouping key: microsomal CLint at 1 h. Bins: low bracket: < 10 µL/min/mg; middle bracket: ≥ 10 µL/min/mg and < 40 µL/min/mg; high bracket: ≥ 40 µL/min/mg

Solved entries (count: 10):
{"CHEMICAL SMILES": "CCC1=C(CC)/C(=C/NC2CCCCC2)N=C1c1ccc(CC)[nH]1", "GROUP": "middle bracket"}
{"CHEMICAL SMILES": "CCC1=C(CC)/C(=C/N[C@H]2CC[C@H](C(=O)OC)CC2)N=C1c1ccc[nH]1", "GROUP": "high bracket"}
{"CHEMICAL SMILES": "CCc1ccc(C2=N/C(=C\\NC3CCCCCC3)C3=C2OCCO3)[nH]1", "GROUP": "high bracket"}
{"CHEMICAL SMILES": "CCC1=C(CC)/C(=C/NC2CCCCC2)N=C1c1ccc(Br)[nH]1", "GROUP": "middle bracket"}
{"CHEMICAL SMILES": "CCC1=C(CC)/C(=C/NC2CCCCC2)N=C1c1ccc(-c2ccc(OC)cc2)[nH]1", "GROUP": "middle bracket"}
{"CHEMICAL SMILES": "CCC1=C(CC)/C(=C/NC2CCCCCC2)N=C1c1ccc(Cl)[nH]1", "GROUP": "low bracket"}
{"CHEMICAL SMILES": "CCC1=C(CC)/C(=C/NC2CCCCCC2)N=C1c1ccc(Cc2ccc(OC)cc2)[nH]1", "GROUP": "low bracket"}
{"CHEMICAL SMILES": "CCC1=C(CC)/C(=C/NC23C[C@H]4C[C@@H](C2)C[C@@H](C3)C4)N=C1c1ccc(CC)[nH]1", "GROUP": "middle bracket"}
{"CHEMICAL SMILES": "CCC1=C(C)/C(=C/NC2CCCCC2)N=C1c1ccc(CC)[nH]1", "GROUP": "middle bracket"}
{"CHEMICAL SMILES": "COC1=C(OC)/C(=C/NC2CCCCCC2)N=C1c1ccc[nH]1", "GROUP": "high bracket"}

Ask | Textbook exercise: identify the category of the molecule given here, CCc1ccc(C2=N/C(=C\NC3CCCCCC3)C(OC)=C2OC)[nH]1 , according to its measured value.
Reply | middle bracket

Ask | Textbook exercise: identify the category of the molecule given here, CCC1=C(CC)/C(=C/N[C@H]2CC[C@H](C(F)(F)F)CC2)N=C1c1ccc[nH]1 , according to its measured value.
Reply | middle bracket

Ask | Textbook exercise: identify the category of the molecule given here, CCC1=C(CC)/C(=C/NC2CCCCC2)N=C1c1ccc(-c2ccccc2)[nH]1 , according to its measured value.
Reply | middle bracket

Ask | Textbook exercise: identify the category of the molecule given here, CCC1=C(CC)/C(=C/NC2CCCCCC2)N=C1c1ccc(-c2ccccc2)[nH]1 , according to its measured value.
Reply | high bracket

Ask | Textbook exercise: identify the category of the molecule given here, CCc1ccc(C2=N/C(=C\NC3CCCCCC3)C3=C2CCCC3)[nH]1 , according to its measured value.
Reply | middle bracket

Ask | Textbook exercise: identify the category of the molecule given here, C(/NC1CCCCC1)=C1/N=C(c2ccc[nH]2)C2=C1CCCC2 , according to its measured value.
Reply | high bracket

Ask | Textbook exercise: identify the category of the molecule given here, CCC1=C(CC)/C(=C/NC2CCCCC2)N=C1c1ccc(Cl)[nH]1 , according to its measured value.
Reply | low bracket

Ask | Textbook exercise: identify the category of the molecule given here, CCc1ccc(C2=N/C(=C\NC3CCCCC3)C3=C2CCCC3)[nH]1 , according to its measured value.
Reply | low bracket

Ask | Textbook exercise: identify the category of the molecule given here, CCC1=C(CC)/C(=C/N[C@H]2CC[C@H](C)CC2)N=C1c1ccc[nH]1 , according to its measured value.
Reply | middle bracket

Ask | Textbook exercise: identify the category of the molecule given here, CCC1=C(CC)/C(=C/NC23C[C@H]4C[C@@H](C2)C[C@@H](C3)C4)N=C1c1ccc(-c2ccc(OC)cc2)[nH]1 , according to its measured value.
Reply | high bracket

Ask | Textbook exercise: identify the category of the molecule given here, CC1=C(C)/C(=C/NC2CCCCCC2)N=C1c1ccc(C)[nH]1 , according to its measured value.
Reply | middle bracket

Ask | Textbook exercise: identify the category of the molecule given here, CCC1=C(CC)/C(=C/NC2CCCCCCC2)N=C1c1ccc(CC)[nH]1 , according to its measured value.
Reply | middle bracket

Ask | Textbook exercise: identify the category of the molecule given here, COc1ccc(Cc2ccc(C3=N/C(=C\NC4CCCCCC4)C4=C3OCCO4)[nH]2)cc1 , according to its measured value.
Reply | middle bracket

Reference source: ChEMBL document CHEMBL6178021
